test system: P-glycoprotein (P-gp); assay: Bidirectional transport across Caco-2 cell monolayers; assay type: in vitro ADME; details: human, Caco-2, with verapamil 100 µM
Counter-ions that a name gives are not always drawn.
valueKind: Papp B→A at 4 h, 2 μg/mL (×10⁻⁶ cm/s)

compound: O=C(CC1NCCCC1O)Cn1cnc2cc(Br)c(Cl)cc2c1=O (stereo not shown) [HF, Halofuginone hydrobromide]
assaySystem: P-glycoprotein (P-gp)
valueKind: Papp B→A at 4 h, 2 μg/mL
unitString: ×10⁻⁶ cm/s
reported: 5.9

---

test system: P-glycoprotein (P-gp); test: Bidirectional transport across Caco-2 cell monolayers; type: in vitro ADME; conditions: human, Caco-2, with verapamil 100 µM
Counter-ions that a name gives are not always drawn.
valueKind: Papp A→B at 4 h, 2 μg/mL (×10⁻⁶ cm/s)

compound: O=C(CC1NCCCC1O)Cn1cnc2cc(Br)c(Cl)cc2c1=O (stereo not shown) [HF, Halofuginone hydrobromide]
unitString: ×10⁻⁶ cm/s
reported: 6.25

---

assay: Bidirectional transport across Caco-2 cell monolayers; format: in vitro ADME; conditions: human, Caco-2
Where a name gives a salt, the structure may show the parent alone.

molecule: O=C(CC1NCCCC1O)Cn1cnc2cc(Br)c(Cl)cc2c1=O (stereo not shown) [HF, Halofuginone hydrobromide]
Papp A→B at 4 h, 2 μg/mL, ×10⁻⁶ cm/s: 4.73

Entry source: paper PMC9166452
